# assayedSystem: Gamma-secretase
# assayProtocol: Effect on gamma-secretase activity in human H4 cells expressing APP695 assessed as reduction of Amyloid beta42 formation LPECL assay
# Type: cell-based
quantityKind: pIC50
Quick note: pIC50 means taking -log10 of the concentration in moles per liter.

Some solved cases for reference:
{"columns": ["smilesNotation", "assayedSystem", "value"],
 "data": [
  ["O=C(O)COc1ccc2c3ccccc3n(S(=O)(=O)c3ccc(Cl)cc3)c2c1", "Gamma-secretase", 4.49],
  ["Cc1ccc(S(=O)(=O)n2c3ccccc3c3ccc(OCC(=O)O)cc32)cc1", "Gamma-secretase", 4.41],
  ["CCCCCCCCc1ccc(S(=O)(=O)n2c3ccccc3c3ccc(OCC(=O)O)cc32)cc1", "Gamma-secretase", 4.43],
  ["CC(C)c1cc(C(C)C)c(S(=O)(=O)n2c3ccccc3c3ccc(OCC(=O)O)cc32)c(C(C)C)c1", "Gamma-secretase", 5.12]
]}

API: value(readout=pIC50, system=Gamma-secretase) for record CCCCCCCCCCn1c2ccccc2c2ccc(OCC(=O)O)cc21
4.96

----------
# assayedSystem: Gamma-secretase
# assayProtocol: Effect on gamma-secretase activity in human H4 cells expressing APP695 assessed as reduction of Amyloid beta42 formation LPECL assay
# Type: cell-based
pIC50: −log10 of the molar value.
Assign criterion met whenever pIC50 does not fall below 5; assign criterion not met whenever it does.

{"columns": ["molecule", "answerLabel"],
 "data": [
  ["CCCCCCCCn1c2ccccc2c2ccc(OCC(=O)O)cc21", "criterion not met"]
]}

API: above_or_equal(metric=pIC50, cutoff=5) for item O=C(O)COc1ccc2c3ccccc3n(S(=O)(=O)c3cc(C(F)(F)F)cc(C(F)(F)F)c3)c2c1
criterion not met

API: above_or_equal(metric=pIC50, cutoff=5) for item CCCCCCCCCCn1c2ccc(Cl)cc2c2ccc(C(C)C(=O)O)cc21 (centres undefined)
criterion met

API: above_or_equal(metric=pIC50, cutoff=5) for item O=C(O)COc1ccc2c3ccccc3n(S(=O)(=O)c3cc(F)cc(F)c3)c2c1
criterion not met

API: above_or_equal(metric=pIC50, cutoff=5) for item C[C@H](c1ccc(F)cc1CCCC(=O)O)N(c1cc(F)ccc1F)S(=O)(=O)c1ccc(Cl)cc1
criterion met

----------
# System: H4
# assayProtocol: Cytotoxicity against human H4 cells assessed as reduction of viability
# Type: cell-based
quantityKind: Activity (µM)
Give the number; µM is assumed, so skip it.

{"columns": ["smilesNotation", "measurementUnits", "Activity"],
 "data": [
  ["Cc1ccc(S(=O)(=O)n2c3ccccc3c3ccc(OCC(=O)O)cc32)cc1", "µM", 20],
  ["O=C(O)COc1ccc2c3ccccc3n(S(=O)(=O)c3ccccc3Br)c2c1", "µM", 40],
  ["O=C(O)COc1ccc2c3ccccc3n(S(=O)(=O)c3cc(C(F)(F)F)cc(C(F)(F)F)c3)c2c1", "µM", 20],
  ["O=C(O)COc1ccc2c3ccccc3n(S(=O)(=O)c3cc(F)cc(F)c3)c2c1", "µM", 40],
  ["O=C(O)COc1ccc2c3ccccc3n(S(=O)(=O)c3cccc([N+](=O)[O-])c3)c2c1", "µM", 40]
]}

Sample CC(C)c1cc(C(C)C)c(S(=O)(=O)n2c3ccccc3c3ccc(OCC(=O)O)cc32)c(C(C)C)c1 — what was its Activity?
20

Sample O=C(O)COc1ccc2c3ccccc3n(S(=O)(=O)c3ccc(Cl)cc3)c2c1 — what was its Activity?
40

Sample O=C(O)COc1ccc2c3ccccc3n(S(=O)(=O)c3ccc(-c4ccccc4)cc3)c2c1 — what was its Activity?
20

----------
# assayedSystem: Gamma-secretase
# assayProtocol: Effect on gamma-secretase activity in human H4 cells expressing APP695 assessed as increase in Amyloid beta-38 formation by LPECL assay
# particulars: read-out: IC50 (the source's name)
quantityKind: pEC50
Quick note: pEC50 means taking -log10 of the concentration in moles per liter.

{"columns": ["smilesNotation", "assayedSystem", "pEC50"],
 "data": [
  ["O=C(O)COc1ccc2c3ccccc3n(S(=O)(=O)c3cccc([N+](=O)[O-])c3)c2c1", "Gamma-secretase", 4.80],
  ["CCCCCCCCCn1c2ccccc2c2ccc(OCC(=O)O)cc21", "Gamma-secretase", 4.52],
  ["Cc1ccc(S(=O)(=O)n2c3ccccc3c3ccc(OCC(=O)O)cc32)cc1", "Gamma-secretase", 4.89],
  ["CCCCCCCCn1c2ccccc2c2ccc(OCC(=O)O)cc21", "Gamma-secretase", 4.62]
]}

Here is the next item to consider.
Sample O=C(O)COc1ccc2c3ccccc3n(S(=O)(=O)c3cc(F)cc(F)c3)c2c1 — what was its pEC50?
4.89

----------
Listed next: entries and their corresponding IC50.
# assayedSystem: Gamma-secretase
# assayProtocol: Effect on gamma-secretase activity in human H4 cells expressing APP695 assessed as reduction of Amyloid beta-40 formation LPECL assay
# Format: cell-based

Some solved cases for reference:
{"columns": ["compound", "value"],
 "data": [
  ["CCCCCCCCn1c2ccccc2c2ccc(OCC(=O)O)cc21", "> 40 µM"],
  ["O=C(O)COc1ccc2c(c1)[nH]c1ccccc12", "> 40 µM"],
  ["CC(C)c1cc(C(C)C)c(S(=O)(=O)n2c3ccc(Cl)cc3c3ccc(C(C)C(=O)O)cc32)c(C(C)C)c1 (stereo unspecified)", "> 20 µM"],
  ["CCCc1ccc(S(=O)(=O)n2c3ccccc3c3ccc(OCC(=O)O)cc32)cc1", "> 40 µM"],
  ["O=C(O)COc1ccc2c3ccccc3n(S(=O)(=O)c3cc(C(F)(F)F)cc(C(F)(F)F)c3)c2c1", "> 40 µM"]
]}

Here is the next item to consider.
Sample O=C(O)COc1ccc2c3ccccc3n(S(=O)(=O)c3ccc(-c4ccccc4)cc3)c2c1 — what was its IC50?
40 µM

----------
Listed next: entries and their corresponding EC50.
# assayedSystem: Gamma-secretase
# assayProtocol: Effect on gamma-secretase activity in human H4 cells expressing APP695 assessed as increase in Amyloid beta-38 formation by LPECL assay
# particulars: read-out: IC50 (the source's name)
Give the number; µM is assumed, so skip it.

{"columns": ["molecule", "assayedSystem", "measurementUnits", "value"],
 "data": [
  ["O=C(O)COc1ccc2c3ccccc3n(S(=O)(=O)c3ccc(Cl)cc3)c2c1", "Gamma-secretase", "µM", 32],
  ["O=C(O)COc1ccc2c3ccccc3n(S(=O)(=O)c3ccc(-c4ccccc4)cc3)c2c1", "Gamma-secretase", "µM", 13],
  ["CC(C)c1cc(C(C)C)c(S(=O)(=O)n2c3ccccc3c3ccc(OCC(=O)O)cc32)c(C(C)C)c1", "Gamma-secretase", "µM", 7.8],
  ["CC(C)c1cc(C(C)C)c(S(=O)(=O)n2c3ccc(Cl)cc3c3ccc(C(C)C(=O)O)cc32)c(C(C)C)c1 (stereo not given)", "Gamma-secretase", "µM", 9.3]
]}

Here is the next item to consider.
Sample CCCCCCCCCCn1c2ccc(Cl)cc2c2ccc(C(C)C(=O)O)cc21 (stereo not given) — what was its EC50?
5.8

----------
# assayedSystem: Gamma-secretase
# assayProtocol: Effect on gamma-secretase activity in human H4 cells expressing APP695 assessed as reduction of Amyloid beta42 formation LPECL assay
# Type: cell-based
pIC50: −log10 of the molar value.
quantityKind: pIC50

Some solved cases for reference:
{"columns": ["smilesNotation", "quantityKind", "value"],
 "data": [
  ["O=C(O)COc1ccc2c(c1)[nH]c1ccccc12", "pIC50", "< 4.40"],
  ["O=C(O)COc1ccc2c3ccccc3n(S(=O)(=O)c3cccc([N+](=O)[O-])c3)c2c1", "pIC50", "< 4.40"]
]}

Here is the next item to consider.
Sample O=C(O)COc1ccc2c3ccccc3n(S(=O)(=O)c3ccccc3Br)c2c1 — what was its pIC50?
< 4.40

----------
# assayedSystem: Gamma-secretase
# assayProtocol: Effect on gamma-secretase activity in human H4 cells expressing APP695 assessed as reduction of Amyloid beta42 formation LPECL assay
# Assay type: cell-based
Listed next: entries and their corresponding IC50.

{"columns": ["molecule", "value"],
 "data": [
  ["CC(C)c1cc(C(C)C)c(S(=O)(=O)n2c3ccc(Cl)cc3c3ccc(C(C)C(=O)O)cc32)c(C(C)C)c1 (centres undefined)", "8.5 µM"],
  ["O=C(O)COc1ccc2c3ccccc3n(S(=O)(=O)c3ccc(-c4ccccc4)cc3)c2c1", "24 µM"],
  ["CCCCCCCCCn1c2ccccc2c2ccc(OCC(=O)O)cc21", "17 µM"]
]}

Here is the next item to consider.
API: value(readout=IC50, system=Gamma-secretase) for record CCCc1ccc(S(=O)(=O)n2c3ccccc3c3ccc(OCC(=O)O)cc32)cc1
38 µM

----------
# assayedSystem: Gamma-secretase
# assayProtocol: Effect on gamma-secretase activity in human H4 cells expressing APP695 assessed as increase in Amyloid beta-38 formation by LPECL assay
# particulars: read-out: IC50 (the source's name)
Listed next: entries and their corresponding EC50.

Some solved cases for reference:
{"columns": ["smilesNotation", "assayedSystem", "quantityKind", "value"],
 "data": [
  ["O=C(O)COc1ccc2c3ccccc3n(S(=O)(=O)c3ccccc3Br)c2c1", "Gamma-secretase", "EC50", "> 40 µM"],
  ["O=C(O)COc1ccc2c3ccccc3n(S(=O)(=O)c3cc(C(F)(F)F)cc(C(F)(F)F)c3)c2c1", "Gamma-secretase", "EC50", "> 40 µM"]
]}

Here is the next item to consider.
Sample O=C(O)COc1ccc2c(c1)[nH]c1ccccc12 — what was its EC50?
> 40 µM
